Tested on: MCF-7 human breast carcinoma cells
Assay Summary: cells
Assay Context: MCF7, 96 h, read-out: MCF-7 IC50 ± SD
Readout Kind: IC50 (nM)
Record the value in nM, omitting the unit from your answer.

The compound COc1cc(C(=O)c2ccn(-c3cccc([N+](=O)[O-])c3)c2)cc(OC)c1OC [Compound 19] , when measured on MCF-7 human breast carcinoma cells, yielded IC50 of 230

====

Assay Summary: in vitro
Assay Context: human, Caco-2
Readout Kind: efflux ratio

Kindly note the recorded efflux ratio for `COc1cc(C(=O)c2ccn(-c3cccc(N)c3)c2)cc(OC)c1OC` , which is < 2

Where these numbers come from: paper PMC4154712
